Tested on: ATP;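 also: ATP exposure 15 min at 22 °C before imaging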
method summary: switch fluorescence ratio, 500 uM ATP over buffer (Cy3 cluster intensity, sum of 5 cycles each) (fold (ratio)); higher = stronger signal-on switching upon ATP binding; sequences stand for … in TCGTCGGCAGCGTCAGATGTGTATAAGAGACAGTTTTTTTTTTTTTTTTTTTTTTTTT…TC
condition info: aptamer strand: ATP DNA aptamer (quencher-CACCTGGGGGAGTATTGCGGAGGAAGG + anchor), 100 nM annealed; ATP concentration: 500 uM
Provide the reported switch fluorescence ratio of each item.
Write the number on its own, no unit after it.

Record TCCGATTATG , field switch fluorescence ratio: 1.02

Lookup result for AGATATGGTG ; measured switch fluorescence ratio: 1.01

sequence CGGATGTTTT , switch fluorescence ratio observed: 0.984

The reported value for AAACTAAGAA in terms of switch fluorescence ratio is 1

// TCGAGAGAGG : switch fluorescence ratio value = 1.01

Reported switch fluorescence ratio of CTAATTAAGT : 0.973

The sequence AATTAAGTGT showed switch fluorescence ratio equal to 0.969

// field: switch fluorescence ratio; key: AGGAGTGGAG ; value = 0.996

# switch fluorescence ratio (sequence: AATTTGTGGC ) is 0.995

Memo: TTCTGTTTGG , reported switch fluorescence ratio: 1.01

// recorded switch fluorescence ratio for TTTTTGTTTT : 1

# switch fluorescence ratio (sequence: TTTAGAAATA ) is 1.05

Value of switch fluorescence ratio reported for the sequence AAGAGGAGAG is 1.04

switch fluorescence ratio reading for AGAGCATTTG : 1.01

Summary for this sequence, TTTCTGTACG : switch fluorescence ratio is 1.1

Looking up AGGGGCGGCG , I found its switch fluorescence ratio recorded as 1.01

Reported switch fluorescence ratio ( ATTTGCCCGA ) = 1

For reference, reported switch fluorescence ratio for TAAGTTTTCC stands at 1.03

Just so you know, measured switch fluorescence ratio for GGATTCGGTG came out at 0.976

Form field switch fluorescence ratio, entry CGAGTCCTGT : 1

Measured switch fluorescence ratio of GCCGGATTCG : 1.02

Recorded result, GGTATAAAGA , switch fluorescence ratio: 0.984

For TGTTTGGAGG the sequence record lists switch fluorescence ratio as 0.985

For record GGATAATATT the listed switch fluorescence ratio is 1.05

switch fluorescence ratio reading for CAGTGCATTG : 1.01

So for CGGGGGCAAG , the logged switch fluorescence ratio turned out to be 1.07

Entry GGAAGGCGGC ; switch fluorescence ratio = 1.08

Noted for ACATCTTCGA : its switch fluorescence ratio reads 0.97

Entry TTCATTGGTT ; switch fluorescence ratio = 0.998

Entry TTTCCTGGAT ; switch fluorescence ratio = 1.04

Entry under test: GATTATGGGG . Its switch fluorescence ratio was 1.01

Form: sequence = TCCGAGCCTT ; switch fluorescence ratio = 2.08

Record GATGTGGGTT . Reported switch fluorescence ratio: 1.03

GAAATGGTAG has a reported switch fluorescence ratio of 0.99

For reference, reported switch fluorescence ratio for AAGAGCCGCG stands at 1.03

Recorded switch fluorescence ratio (sequence TCGATTTGGT ): 0.975

switch fluorescence ratio recorded for this sequence, CAGTCGGTTT , is 1.01

response.value for AATAATAAGA (field: switch fluorescence ratio) = 1

switch fluorescence ratio for ATATTAGGGC is 1.02

Note to self: switch fluorescence ratio recorded for AGTATGTCGT was 1.03

Value of measured switch fluorescence ratio for the entry AAAGGGGGAC : 1.04

Memo: GGAGGCGGTG , reported switch fluorescence ratio: 1.05

# switch fluorescence ratio of ATTGGATCGG = 0.996

Reported switch fluorescence ratio of AGCTGGGTCC : 1.04

The value of switch fluorescence ratio measured for the sequence TCCGAGGGGT turned out to be 1.67

Record CAGTTGGGAT . Reported switch fluorescence ratio: 0.969

The value of switch fluorescence ratio measured for the sequence CTAGAAAGC turned out to be 1.02

What the record says about TTTTTAAGCT : switch fluorescence ratio is 1.02

Documented switch fluorescence ratio of TGGGTTGGGG : 1.01

Input TATTGTTGTT . Output switch fluorescence ratio: 0.995

switch fluorescence ratio reported for this sequence TTTGCGATTT : 1.15

// field: switch fluorescence ratio; key: TTGGCACGGG ; value = 1.03

Reported switch fluorescence ratio of TTAATATCCT : 1.06

Please fill in: switch fluorescence ratio reported for ACTTGCCTGT = 1.01

Briefly, switch fluorescence ratio measured for TTCCTCTCGG : 1.17

switch fluorescence ratio reported for this sequence GATGTTATCG : 0.99

For this sequence ( GAGGTTTGGG ), measured switch fluorescence ratio is 0.982

The sequence listed as GTTATCATTT has a reported switch fluorescence ratio of 0.989

Record ATAGCGGAGA , field switch fluorescence ratio: 1

Noted for CACGCTAGTA : its switch fluorescence ratio reads 1.04

What the record says about AATGTTATCT : switch fluorescence ratio is 0.994

Noted for TTGGTGCAGC : its switch fluorescence ratio reads 1.02

Query TTCAGCCCGG yields switch fluorescence ratio of 0.986

Note to self: switch fluorescence ratio recorded for TTTAATAAAG was 1.02

Lab note: measured switch fluorescence ratio of TGTGGGGCCA was 0.96

The reported value for AAGGACCCCT in terms of switch fluorescence ratio is 1.06

Per the record, CGCCTGGGCA has switch fluorescence ratio of 1.02

Measured switch fluorescence ratio, CAATCTTGGG : 0.971

The sequence listed as TAAATTTATA shows switch fluorescence ratio equal to 0.992

// field: switch fluorescence ratio; key: AAGGGACTGC ; value = 0.97

###

System: ATP;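 also: ATP exposure 15 min at 22 °C before imaging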
method summary: switch fluorescence ratio, 500 uM ATP over buffer (Cy3 cluster intensity, sum of 5 cycles each) (fold (ratio)); higher = stronger signal-on switching upon ATP binding; sequences stand for … in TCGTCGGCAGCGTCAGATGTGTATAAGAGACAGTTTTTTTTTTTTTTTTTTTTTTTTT…TC
condition info: aptamer strand: ATP DNA aptamer (quencher-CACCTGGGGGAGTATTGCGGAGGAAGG + anchor), 100 nM annealed; ATP concentration: 500 uM
measured property: switch fluorescence ratio
Returns: the value as a bare number; no unit string appended.

Memo: TAACACTAGC , reported switch fluorescence ratio: 1.01

switch fluorescence ratio for ATGTTTCGGT is 0.992

TCCGGGGTCG has a reported switch fluorescence ratio of 1.03

Value of measured switch fluorescence ratio for the entry GCGCAGTGGC : 1.23

Reported switch fluorescence ratio of CGTGTAATGT : 0.985

Entry ATGTGCGATT — recorded switch fluorescence ratio = 1

// switch fluorescence ratio value for CTAGCCTCTT : 0.995

switch fluorescence ratio for GCTTTTAGAT is 0.979

Recorded result, GGAGGGTGAG , switch fluorescence ratio: 0.984

Looking up AAGTTAAGCC , I see its switch fluorescence ratio listed as 1.01

Summary for this sequence, TATGGGTGAT : switch fluorescence ratio is 1.01

Data point: TTTGGCCCCG ; switch fluorescence ratio = 0.961

Noted for CAGAGGGGGC : its switch fluorescence ratio reads 1.01

Form: sequence = AAGGTTGCGC ; switch fluorescence ratio = 0.986

Entry CGAGGGCCGG ; switch fluorescence ratio = 0.997

The sequence listed as TTTTGTTGGT has a reported switch fluorescence ratio of 1

Sample ACTCTTGTAT ; switch fluorescence ratio observed: 1.04

GGCATTGTCT yielded switch fluorescence ratio of 1.03

Query ATAACGTAGC yields switch fluorescence ratio of 1.11

Lab note: measured switch fluorescence ratio of TGAGGGAGCA was 1.01

switch fluorescence ratio reading for CAACATTTCA : 1.01

The recorded switch fluorescence ratio for entry CCGGGGTTAT equals 1.12

response.value for GGGGGGATAA (field: switch fluorescence ratio) = 1.08

Lab book: switch fluorescence ratio of GGGGTAATGC noted as 1.34

switch fluorescence ratio for GTGTTTCCGG is 1.01

Field switch fluorescence ratio (entry TAGGGGTTAG ) reads 0.981

Memo: GGTCTGTATT , reported switch fluorescence ratio: 0.972

The reported switch fluorescence ratio of the sequence AAACGCGTTG was 0.996

Form field switch fluorescence ratio, entry TTTCCAGCGT : 1.03

Entry GCGCTCGAGT ; switch fluorescence ratio = 1.02

Memo: ATCAGGTTCT , reported switch fluorescence ratio: 1.03

Recorded switch fluorescence ratio (sequence ACTGTTTGGA ): 0.995

###

System: ATP;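 also: ATP exposure 15 min at 22 °C before imaging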
method summary: switch fluorescence ratio, 500 uM ATP over buffer (Cy3 cluster intensity, sum of 5 cycles each) (fold (ratio)); higher = stronger signal-on switching upon ATP binding; sequences stand for … in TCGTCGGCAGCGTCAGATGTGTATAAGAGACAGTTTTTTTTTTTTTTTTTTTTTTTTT…TC
condition info: aptamer strand: ATP DNA aptamer (quencher-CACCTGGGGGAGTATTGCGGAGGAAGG + anchor), 100 nM annealed; ATP concentration: 500 uM
I'd appreciate it if you could supply switch fluorescence ratio values for the items below.
# respond with the number and nothing more

get_value(item= TGGGGGGATC , readout=switch fluorescence ratio) returns 1.01

For record TTATTTCGTG the listed switch fluorescence ratio is 0.998

The recorded switch fluorescence ratio for entry GAGTGTTAGG equals 0.996

GET /value?item= GAGGGAACAG &field=switch fluorescence ratio returns 1.01

Form: sequence = TTGTGATGTG ; switch fluorescence ratio = 0.986

Reported switch fluorescence ratio ( CTTAGGACAG ) = 1.01

Recorded switch fluorescence ratio (sequence CCTGTGGGGG ): 0.993

Item: TTATATCCGT | switch fluorescence ratio: 1.01

The value of switch fluorescence ratio measured for the sequence TTTTTTCTTA turned out to be 0.995

Entry GCGCTCTTAT , switch fluorescence ratio reported as 1

switch fluorescence ratio in this record for GGGATTGGCA : 0.98

Measured switch fluorescence ratio, TCATGGAGTA : 0.981

get_value(item= GGCAGTTTTT , readout=switch fluorescence ratio) returns 0.985

Consider GAGATCGGGG . Its measured switch fluorescence ratio is 1

Value of measured switch fluorescence ratio for the entry AGTGTTTCTG : 0.973

Lab note: CCATGTTTGG gave switch fluorescence ratio of 0.996

Record ATTGGTTTAA , field switch fluorescence ratio: 0.998

So for GTTTGTAGTG , the logged switch fluorescence ratio turned out to be 1.01

// sample TTTTTGTTGA , its switch fluorescence ratio was 0.991

Please fill in: switch fluorescence ratio reported for GGGTATCGTA = 1.01

Value of measured switch fluorescence ratio for the entry CTGTATAAGT : 0.985

Memo: TTCATTATGG , reported switch fluorescence ratio: 1

Consider AGGGAATGTT . Its measured switch fluorescence ratio is 0.972

Quick note, switch fluorescence ratio for TTTGTGGAGG landed at 0.999

Lab book: switch fluorescence ratio of CTGTTTACTG noted as 0.987

Lab note: GAAAATGTCG gave switch fluorescence ratio of 0.988

Recorded switch fluorescence ratio (sequence TGGATATTTA ): 0.978

# sequence GGTGGGAGCT ; its switch fluorescence ratio = 1.01

What the record says about TGGTTTAGAG : switch fluorescence ratio is 0.979

// recorded switch fluorescence ratio for GGCGCTAGCG : 0.993

// field: switch fluorescence ratio; key: TGTAGTAGGT ; value = 1

Form: sequence = TTTAATTTTA ; switch fluorescence ratio = 1

GET /value?item= CGGAGGGGAG &field=switch fluorescence ratio returns 0.977

So, TGAGGTATCT ? Its switch fluorescence ratio was 1.01

Memo: TATGGGTTTT , reported switch fluorescence ratio: 1.02

So, TCAAGGAGTT ? Its switch fluorescence ratio was 0.977

Reported switch fluorescence ratio for TTTAGAAGGA was 0.98

Reported switch fluorescence ratio for TTGTGTTGGG was 1.01

Record summary for TTGATTTTGC : reported switch fluorescence ratio = 0.993

// field: switch fluorescence ratio; key: GGTATTGGCA ; value = 0.996
